- test.protocol: Half life in Wistar Han rat at 2 mg/kg, iv
- Assay type: ADME, organism-based
- assay.context: in vivo
quantity.measured: half-life (h)
One number for each entry, in h.

Known results for molecules:
| smiles.notation | half-life [h] |
| --- | --- |
| CC1(C)OC(=O)N2C[C@H](c3nc(-c4ccc(C(=O)Nc5cc(C(F)(F)F)ccn5)cc4)c4c(N)nccn34)CC[C@H]21 | 3.6 |
| COc1cc(C(=O)Nc2cc(C(F)(F)F)ccn2)ccc1-c1nc([C@@H]2CC[C@H]3CCC(=O)N3C2)n2ccnc(N)c12 | 3 |
| Nc1nccn2c([C@@H]3CC[C@H]4CCC(=O)N4C3)nc(-c3ccc(C(=O)Nc4cc(C(F)(F)F)ccn4)cc3)c12 | 2.8 |
| Nc1nccn2c([C@@H]3CC[C@H]4COC(=O)N4C3)nc(-c3ccc(C(=O)Nc4cc(C(F)(F)F)ccn4)cc3)c12 | 5.1 |

Let's switch to this molecule now.
Requested read-out: half-life. Entry: `Nc1nccn2c([C@@H]3CC[C@H]4CCC(=O)N4C3)nc(-c3ccc(C(=O)Nc4cc(C(F)(F)F)ccn4)cc3OC3CC3)c12`
2.3

====

- tgt: Tyrosine-protein kinase Blk (Homo sapiens, UniProt P51451)
- Sequence (P51451 whole entry): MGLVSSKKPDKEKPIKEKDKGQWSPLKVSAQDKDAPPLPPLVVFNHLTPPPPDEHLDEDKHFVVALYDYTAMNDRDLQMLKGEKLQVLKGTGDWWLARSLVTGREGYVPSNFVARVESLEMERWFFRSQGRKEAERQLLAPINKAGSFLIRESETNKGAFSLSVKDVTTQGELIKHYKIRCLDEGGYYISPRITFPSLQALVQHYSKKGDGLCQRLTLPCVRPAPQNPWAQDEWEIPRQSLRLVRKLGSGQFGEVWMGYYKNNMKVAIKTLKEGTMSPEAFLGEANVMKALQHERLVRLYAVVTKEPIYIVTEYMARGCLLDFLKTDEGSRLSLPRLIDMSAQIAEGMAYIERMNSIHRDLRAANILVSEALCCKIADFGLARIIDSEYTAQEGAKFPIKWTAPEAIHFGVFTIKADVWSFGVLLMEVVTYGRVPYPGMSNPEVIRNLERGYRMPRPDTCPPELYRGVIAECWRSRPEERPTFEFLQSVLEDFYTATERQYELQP
Can you tell me IC50 for the items I'm about to list?
Numbers only, in nM.

| smiles.notation | tgt | endpoint.unit | IC50 |
| --- | --- | --- | --- |
| CC1(C)OC(=O)N2C[C@H](c3nc(-c4ccc(C(=O)Nc5cc(C(F)(F)F)ccn5)cc4)c4c(N)nccn34)CC[C@H]21 | Tyrosine-protein kinase Blk (Homo sapiens, UniProt P51451) | nM | 17 |
| Nc1nccn2c([C@@H]3CC[C@H]4CCC(=O)N4C3)nc(-c3ccc(C(=O)Nc4cc(C(F)(F)F)ccn4)cc3)c12 | Tyrosine-protein kinase Blk (Homo sapiens, UniProt P51451) | nM | 8.3 |
| Nc1nccn2c([C@@H]3CC[C@H]4COC(=O)N4C3)nc(-c3ccc(C(=O)Nc4cc(C(F)(F)F)ccn4)cc3)c12 | Tyrosine-protein kinase Blk (Homo sapiens, UniProt P51451) | nM | 22 |

Requested read-out: IC50. Entry: `COc1cc(C(=O)Nc2cc(C(F)(F)F)ccn2)ccc1-c1nc([C@@H]2CC[C@H]3CCC(=O)N3C2)n2ccnc(N)c12`
101

====

- test.protocol: AUC in Wistar Han rat at 2 mg/kg, iv
- Type: ADME, organism-based
- Parameters: dose 2 mg/kg
- assay.context: in vivo
Threshold rule: AUC greater than or equal to 2 µM·h is rule met; below that, rule not met.

Field: example entries. Status: answers known.
| smiles.notation | class.name |
| --- | --- |
| Nc1nccn2c([C@@H]3CC[C@H]4CCC(=O)N4C3)nc(-c3ccc(C(=O)Nc4cc(C(F)(F)F)ccn4)cc3)c12 | rule met |
| COc1cc(C(=O)Nc2cc(C(F)(F)F)ccn2)ccc1-c1nc([C@@H]2CC[C@H]3CCC(=O)N3C2)n2ccnc(N)c12 | rule not met |
| CC1(C)OC(=O)N2C[C@H](c3nc(-c4ccc(C(=O)Nc5cc(C(F)(F)F)ccn5)cc4)c4c(N)nccn34)CC[C@H]21 | rule met |
| Nc1nccn2c([C@@H]3CC[C@H]4CCC(=O)N4C3)nc(-c3ccc(C(=O)Nc4cc(C(F)(F)F)ccn4)cc3OC3CC3)c12 | rule not met |
| Nc1nccn2c([C@@H]3CC[C@H]4COC(=O)N4C3)nc(-c3ccc(C(=O)Nc4cc(C(F)(F)F)ccn4)cc3)c12 | rule met |

Now for another entry.
Dear colleague, could you confirm whether `C[C@H]1CC[C@@H](c2nc(-c3ccc(C(=O)Nc4cc(C(F)(F)F)ccn4)cc3F)c3c(N)nccn23)CN1C(=O)C1CC1` has AUC at or above 2 µM·h?
rule met

Where do the numbers come from? From ChEMBL document CHEMBL4725309.
